Item-by-item account of EC50
- tgt: T1, His-cynomolgus monkey LIGHT (cynomolgus monkey)
- T1 construct: also called His-cynoLIGHT
- T1 chain: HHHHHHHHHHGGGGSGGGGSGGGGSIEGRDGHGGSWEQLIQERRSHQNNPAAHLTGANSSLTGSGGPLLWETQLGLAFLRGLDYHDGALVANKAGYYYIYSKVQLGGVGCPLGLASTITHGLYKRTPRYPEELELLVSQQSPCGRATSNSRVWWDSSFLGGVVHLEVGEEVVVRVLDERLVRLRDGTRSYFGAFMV
- test: ELISA, His-cynoLIGHT coated
Reply numerically in nM, unit not repeated.

| binder | unitOfMeasurement | EC50 |
| --- | --- | --- |
| hum_LT-m85-4 (antibody, human IgG4, V domains shown, humanized from LT-m85) VH: QVQLVQSGAEVKKPGASVKVSCKASGYTFTSYNVHWVRQAPGQGLEWIGAVYPGNGDTSYNQKFKGRATLTADKSTSTAYMELSSLRSEDTAVYYCARGSYYYTSSYFDHWGQGTLVTVSS VL: EIVMTQSPATLSVSPGERATLSCKASQSVDFDGDSYMNWYQQKPGQAPRLLIYTASNLESGIPARFSGSGSGTEFTLTISSLQSEDFAVYYCQQSYEDPFTFGQGTKLEIK | nM | 0.0033 |
| hum_LT-m85-2 (antibody, human IgG4, V domains shown, humanized from LT-m85) VH: QVQLVQSGAEVKKPGASVKVSCKASGYTFTSYNVHWVRQAPGQGLEWMGAVYPGNGDTSYNQKFKGRATLTADKSTSTAYMELSSLRSEDTAVYYCARGSYYYTSSYFDHWGQGTLVTVSS VL: EIVMTQSPATLSVSPGERATLSCKASQSVDFDGDSYMNWYQQKPGQPPRLLIYTASNLESGIPARFSGSGSGTEFTLTISSLQSEDFAVYYCQQSYEDPFTFGQGTKLEIK | nM | 0.0142 |
| hum_LT-m85-1 (antibody, human IgG4, V domains shown, humanized from LT-m85) VH: QVQLVQSGAEVKKPGASVKVSCKASGYTFTSYNVHWVRQAPGQGLEWIGAVYPGNGDTSYNQKFKGRATLTADKSTSTVYMELSSLRSEDTAVYYCARGSYYYTSSYFDHWGQGTLVTVSS VL: EIVLTQSPATLSVSPGERATLSCKASQSVDFDGDSYMNWYQQKPGQPPRLLIYTASNLESGIPARFSGSGSGTEFTLTISSLQSEDFAVYYCQQSYEDPFTFGQGTKLEIK | nM | 0.0089 |

Now let's try a different one.
Q: Quick one: give measured EC50 for hum_LT-m85-3 (antibody, human IgG4, V domains shown, humanized from LT-m85) VH: QVQLVQSGAEVKKPGASVKVSCKASGYTFTSYNVHWVRQAPGQGLEWIGAVYPGNGDTSYNQKFKGRATLTADKSTSTVYMELSSLRSEDTAVYYCARGSYYYTSSYFDHWGQGTLVTVSS VL: EIVMTQSPATLSVSPGERATLSCKASQSVDFDGDSYMNWYQQKPGQPPRLLIYTASNLESGIPARFSGSGSGTEFTLTISSLQSEDFAVYYCQQSYEDPFTFGQGTKLEIK
Ans: 0.0155
